assay.system: Ecdysone receptor (Drosophila melanogaster, UniProt P34021)
Sequence (P34021 whole entry): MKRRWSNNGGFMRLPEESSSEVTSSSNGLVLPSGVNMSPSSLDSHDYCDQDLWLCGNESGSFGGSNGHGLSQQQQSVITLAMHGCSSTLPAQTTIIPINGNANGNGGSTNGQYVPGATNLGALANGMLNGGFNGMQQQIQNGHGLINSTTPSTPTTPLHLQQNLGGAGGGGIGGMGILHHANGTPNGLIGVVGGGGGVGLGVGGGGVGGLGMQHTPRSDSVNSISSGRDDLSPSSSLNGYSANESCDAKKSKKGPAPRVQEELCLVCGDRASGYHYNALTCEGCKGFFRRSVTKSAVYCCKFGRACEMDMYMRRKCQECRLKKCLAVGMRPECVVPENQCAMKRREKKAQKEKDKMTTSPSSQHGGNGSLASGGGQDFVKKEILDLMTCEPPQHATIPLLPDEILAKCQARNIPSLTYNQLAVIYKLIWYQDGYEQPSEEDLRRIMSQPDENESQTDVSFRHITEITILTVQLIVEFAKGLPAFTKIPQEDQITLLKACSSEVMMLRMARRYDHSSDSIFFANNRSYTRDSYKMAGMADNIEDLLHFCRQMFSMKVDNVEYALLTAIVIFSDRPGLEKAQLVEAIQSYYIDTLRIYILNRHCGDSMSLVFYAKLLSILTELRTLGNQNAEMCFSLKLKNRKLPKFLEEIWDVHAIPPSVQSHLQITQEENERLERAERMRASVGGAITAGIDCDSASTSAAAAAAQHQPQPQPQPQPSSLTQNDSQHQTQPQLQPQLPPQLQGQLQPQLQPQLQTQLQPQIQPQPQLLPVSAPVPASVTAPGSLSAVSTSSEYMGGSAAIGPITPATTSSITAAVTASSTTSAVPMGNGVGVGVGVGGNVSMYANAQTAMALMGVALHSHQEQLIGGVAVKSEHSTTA
IC50 strictly under 800 nM means Y; at 800 nM or over means N.

compound="C[C@@H]1C(=O)O[C@H](C)[C@H]1C[C@@H](O)[C@](C)(O)[C@H]1CC[C@@]2(O)C3=CC(=O)[C@@H]4C[C@@H](O)[C@@H](O)C[C@]4(C)[C@H]3CC[C@]12C [CYASTERONE]" group_label=Y
compound="CC(C)(O)CC[C@@H](O)[C@](C)(O)[C@H]1CC[C@@]2(O)C3=CC(=O)[C@@H]4C[C@@H](O)[C@@H](O)C[C@]4(C)[C@H]3CC[C@]12C [20-HYDROXYECDYSONE]" group_label=Y
compound="CC(C)CC[C@@H](O)[C@](C)(O)[C@H]1CC[C@@]2(O)C3=CC(=O)[C@@H]4C[C@@H](O)[C@@H](O)C[C@]4(C)[C@H]3CC[C@]12C [PONASTERONE A]" group_label=Y
compound=CC(C)CC[C@@H](O)[C@](C)(O)[C@H]1CC[C@H]2[C@@H]3CC[C@H]4C[C@@H](O)CC[C@]4(C)[C@H]3CC[C@]12C group_label=N
compound="C[C@H](C[C@@H](O)[C@](C)(O)[C@H]1CC[C@@]2(O)C3=CC(=O)[C@@H]4C[C@@H](O)[C@@H](O)C[C@]4(C)[C@H]3CC[C@]12C)C(C)(C)O [MAKISTERONE A]" group_label=Y
compound=CC(C)CC[C@@H](O)[C@](C)(O)[C@H]1CC[C@H]2[C@@H]3C[C@H](O)[C@H]4C[C@@H](O)CC[C@]4(C)[C@H]3CC[C@]12C group_label=N
compound=CC(C)CC[C@@H](O)[C@](C)(O)[C@H]1CC[C@H]2[C@@H]3C[C@@H](O)[C@H]4C[C@@H](O)CC[C@]4(C)[C@H]3CC[C@]12C group_label=N
compound="CC(CO)CC[C@@H](O)[C@](C)(O)[C@H]1CC[C@@]2(O)C3=CC(=O)[C@@H]4C[C@@H](O)[C@@H](O)C[C@]4(C)[C@H]3CC[C@]12C (stereo partly drawn) [INOKOSTERONE]" group_label=Y
compound=CC(C)CC[C@@H](O)[C@](C)(O)[C@H]1CC[C@H]2[C@@H]3CC[C@H]4CCCC[C@]4(C)[C@H]3CC[C@]12C group_label=N
compound=CC(C)CC[C@@H](O)[C@](C)(O)[C@H]1CC[C@H]2[C@@H]3CC=C4C[C@@H](O)CC[C@]4(C)[C@H]3CC[C@]12C group_label=N
compound="C[C@H]([C@H](O)CCC(C)(C)O)[C@H]1CC[C@@]2(O)C3=CC(=O)[C@@H]4C[C@@H](O)[C@@H](O)C[C@]4(C)[C@H]3CC[C@]12C [ECDYSONE]" group_label=N
compound=CC(C)CC[C@@H](O)[C@](C)(O)[C@H]1CC[C@H]2[C@@H]3CC=C4CCCC[C@]4(C)[C@H]3CC[C@]12C group_label=N
